The reported numbers originate from ChEMBL document CHEMBL3217614.

CC50 at 120 h by entry:
Assay: Cytotoxicity against human MT4 cells after 5 days by XTT assay
Type: cell-based

smiles text: CNC(=O)[C@@H](NC(=O)[C@](O)(CCCN(Cc1ccc(Br)cc1)NC(=O)[C@@H](NC(=O)OC)C(C)(C)C)Cc1ccccc1)C(C)(C)C
CC50 at 120 h: > 10 µM

smiles text: CNC(=O)[C@@H](NC(=O)[C@@](O)(CCCN(Cc1ccc(-c2ccccc2)cc1)NC(=O)[C@@H](NC(=O)OC)C(C)(C)C)Cc1ccccc1)C(C)(C)C
CC50 at 120 h: > 50 µM

smiles text: CNC(=O)[C@@H](NC(=O)[C@@](O)(CCCN(Cc1ccc(-c2ccncc2)cc1)NC(=O)[C@@H](NC(=O)OC)C(C)(C)C)Cc1ccccc1)C(C)(C)C
CC50 at 120 h: > 50 µM

smiles text: CNC(=O)[C@H](Cc1ccccc1)NC(=O)[C@@](O)(CCCN(Cc1ccc(Br)cc1)NC(=O)[C@@H](NC(=O)OC)C(C)(C)C)Cc1ccccc1
CC50 at 120 h: > 10 µM

smiles text: COC(=O)N[C@H](C(=O)NN(CCC[C@@](O)(Cc1ccccc1)C(=O)N[C@H](CO)C(C)(C)C)Cc1ccc(Br)cc1)C(C)(C)C
CC50 at 120 h: > 10 µM

smiles text: CNC(=O)[C@@H](NC(=O)[C@@](O)(CCCN(Cc1ccc(C#Cc2ccncc2)cc1)NC(=O)[C@@H](NC(=O)OC)C(C)(C)C)Cc1ccccc1)C(C)(C)C
CC50 at 120 h: > 50 µM

smiles text: CNC(=O)[C@@H](NC(=O)[C@@](O)(CCCN(Cc1ccc(-c2ccsc2)cc1)NC(=O)[C@@H](NC(=O)OC)C(C)(C)C)Cc1ccccc1)C(C)(C)C
CC50 at 120 h: > 50 µM

smiles text: CNC(=O)[C@@H](NC(=O)[C@@](O)(CCCN(Cc1ccc(C#Cc2ccccn2)cc1)NC(=O)[C@@H](NC(=O)OC)C(C)(C)C)Cc1ccccc1)C(C)(C)C
CC50 at 120 h: > 50 µM

smiles text: CNC(=O)[C@@H](NC(=O)[C@@](O)(CCCN(Cc1ccc(Br)cc1)NC(=O)[C@@H](NC(=O)OC)C(C)(C)C)Cc1ccccc1)C(C)(C)C
CC50 at 120 h: > 10 µM

----------
Experiment: Apparent permeability from apical to basolateral side in human Caco2 cells at 10 uM after 30 to 120 mins
Type: ADME, cell-based
Conditions: Caco-2
endpoint label: Papp A→B at 10 µM (×10⁻⁶ cm/s)

smiles text: COC(=O)N[C@H](C(=O)N[C@@H](Cc1ccccc1)[C@@H](O)CN(Cc1ccc(-c2ccccn2)cc1)NC(=O)[C@@H](NC(=O)OC)C(C)(C)C)C(C)(C)C
measured: 5.3

----------
Experiment: Cytotoxicity against human MT4 cells after 5 days by XTT assay
Format: cell-based
Below, each of the compounds is paired with its reported CC50 at 120 h value.

smiles text: CNC(=O)[C@@H](NC(=O)[C@@](O)(CCCN(Cc1ccc(C#Cc2cccnc2)cc1)NC(=O)[C@@H](NC(=O)OC)C(C)(C)C)Cc1ccccc1)C(C)(C)C
CC50 at 120 h: > 50 µM

smiles text: CNC(=O)[C@@H](NC(=O)[C@@](O)(CCCN(Cc1ccc(-c2cccnc2)cc1)NC(=O)[C@@H](NC(=O)OC)C(C)(C)C)Cc1ccccc1)C(C)(C)C
CC50 at 120 h: > 50 µM

smiles text: CNC(=O)[C@@H](NC(=O)[C@@](CCCN(Cc1ccc(Br)cc1)NC(=O)[C@@H](NC(=O)OC)C(C)(C)C)(Cc1ccccc1)O[Si](C)(C)C(C)(C)C)C(C)(C)C
CC50 at 120 h: > 10 µM

smiles text: CNC(=O)[C@@H](NC(=O)[C@@](O)(CCCN(Cc1ccc(-c2ccc3c(c2)OCO3)cc1)NC(=O)[C@@H](NC(=O)OC)C(C)(C)C)Cc1ccccc1)C(C)(C)C
CC50 at 120 h: > 50 µM

smiles text: CNC(=O)[C@H](CC(C)C)NC(=O)[C@@](O)(CCCN(Cc1ccc(Br)cc1)NC(=O)[C@@H](NC(=O)OC)C(C)(C)C)Cc1ccccc1
CC50 at 120 h: > 10 µM

smiles text: CNC(=O)[C@@H](NC(=O)[C@@](O)(CCCN(Cc1ccc(Br)cc1)NC(=O)[C@@H](NC(=O)OC)C(C)(C)C)Cc1ccccc1)C(C)C
CC50 at 120 h: > 10 µM

----------
Assay: Intrinsic clearance in human liver microsomes after 0.5 to 30 mins by LC-MS/MS analysis
Assay type: ADME
Details: read-out: CLH
endpoint label: microsomal CLint (µL/min/mg)

compound: COC(=O)N[C@H](C(=O)N[C@@H](Cc1ccccc1)[C@@H](O)CN(Cc1ccc(-c2ccccn2)cc1)NC(=O)[C@@H](NC(=O)OC)C(C)(C)C)C(C)(C)C [ATAZANAVIR]
endpoint label: microsomal CLint
measured: 140

----------
The following compounds are listed with their measured pEC50 values.
Test system: Human immunodeficiency virus
Assay: Antiviral activity against HIV infected in human MT4 cells by XTT assay
Format: functional, organism-based
Conditions: Human immunodeficiency virus 1, MT4
pEC50: −log10 of the molar value.

smiles text: CNC(=O)[C@@H](NC(=O)[C@@](O)(CCCN(Cc1ccc(-c2cccnc2)cc1)NC(=O)[C@@H](NC(=O)OC)C(C)(C)C)Cc1ccccc1)C(C)(C)C
sign: =
pEC50: 6.00
--
smiles text: CNC(=O)[C@H](Cc1ccccc1)NC(=O)[C@@](O)(CCCN(Cc1ccc(Br)cc1)NC(=O)[C@@H](NC(=O)OC)C(C)(C)C)Cc1ccccc1
sign: =
pEC50: 5.09
--
smiles text: CNC(=O)[C@@H](NC(=O)[C@@](O)(CCCN(Cc1ccc(-c2ccc3c(c2)OCO3)cc1)NC(=O)[C@@H](NC(=O)OC)C(C)(C)C)Cc1ccccc1)C(C)(C)C
sign: =
pEC50: 5.92
--
smiles text: CNC(=O)[C@@H](NC(=O)[C@@](O)(CCCN(Cc1ccc(C#Cc2cccnc2)cc1)NC(=O)[C@@H](NC(=O)OC)C(C)(C)C)Cc1ccccc1)C(C)(C)C
sign: =
pEC50: 5.68
--
smiles text: CNC(=O)[C@@H](NC(=O)[C@@](O)(CCCN(Cc1ccc(-c2ccncc2)cc1)NC(=O)[C@@H](NC(=O)OC)C(C)(C)C)Cc1ccccc1)C(C)(C)C
sign: =
pEC50: 5.96
--
smiles text: CNC(=O)[C@@H](NC(=O)[C@@](O)(CCCN(Cc1ccc(Br)cc1)NC(=O)[C@@H](NC(=O)OC)C(C)(C)C)Cc1ccccc1)C(C)(C)C
sign: =
pEC50: 5.70
--
smiles text: CNC(=O)[C@@H](NC(=O)[C@@](O)(CCCN(Cc1ccc(-c2ccccn2)cc1)NC(=O)[C@@H](NC(=O)OC)C(C)(C)C)Cc1ccccc1)C(C)(C)C
sign: =
pEC50: 5.31
--
smiles text: CNC(=O)[C@@H](NC(=O)[C@@](O)(CCCN(Cc1ccc(C#Cc2ccncc2)cc1)NC(=O)[C@@H](NC(=O)OC)C(C)(C)C)Cc1ccccc1)C(C)(C)C
sign: =
pEC50: 5.05
--
smiles text: COC(=O)N[C@H](C(=O)NN(CCC[C@@](O)(Cc1ccccc1)C(=O)N[C@H]1c2ccccc2C[C@H]1O)Cc1ccc(-c2ccncc2)cc1)C(C)(C)C
sign: =
pEC50: 6.77
--
smiles text: CNC(=O)[C@H](CC(C)C)NC(=O)[C@@](O)(CCCN(Cc1ccc(Br)cc1)NC(=O)[C@@H](NC(=O)OC)C(C)(C)C)Cc1ccccc1
sign: <
pEC50: 5.00
--
smiles text: CNC(=O)[C@@H](NC(=O)[C@@](O)(CCCN(Cc1ccc(-c2ccccc2)cc1)NC(=O)[C@@H](NC(=O)OC)C(C)(C)C)Cc1ccccc1)C(C)(C)C
sign: =
pEC50: 6.00
--
smiles text: CNC(=O)[C@@H](NC(=O)[C@@](O)(CCCN(Cc1ccc(-c2nccs2)cc1)NC(=O)[C@@H](NC(=O)OC)C(C)(C)C)Cc1ccccc1)C(C)(C)C
sign: =
pEC50: 5.43

----------
Target: Protease (Human immunodeficiency virus 1)
Sequence (Q9YQ12 whole entry): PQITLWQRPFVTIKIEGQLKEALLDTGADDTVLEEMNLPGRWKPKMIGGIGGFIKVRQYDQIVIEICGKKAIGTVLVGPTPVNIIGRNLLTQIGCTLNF
pKi: −log10 of the molar value.
Could you label it 1 (yes) if measured pKi is 8 or higher, and 0 (no) otherwise?

smiles text: CNC(=O)[C@@H](NC(=O)[C@@](O)(CCCN(Cc1ccc(-c2cccnc2)cc1)NC(=O)[C@@H](NC(=O)OC)C(C)(C)C)Cc1ccccc1)C(C)(C)C
subject of test: Protease (Human immunodeficiency virus 1)
label value: 1 (yes)

smiles text: COC(=O)N[C@H](C(=O)NN(CCC[C@@](O)(Cc1ccccc1)C(=O)N[C@H](CO)C(C)(C)C)Cc1ccc(Br)cc1)C(C)(C)C
subject of test: Protease (Human immunodeficiency virus 1)
label value: 0 (no)

smiles text: CNC(=O)[C@@H](NC(=O)[C@@](CCCN(Cc1ccc(Br)cc1)NC(=O)[C@@H](NC(=O)OC)C(C)(C)C)(Cc1ccccc1)O[Si](C)(C)C(C)(C)C)C(C)(C)C
subject of test: Protease (Human immunodeficiency virus 1)
label value: 0 (no)

smiles text: CNC(=O)[C@@H](NC(=O)[C@@](O)(CCCN(Cc1ccc(-c2ccccc2)cc1)NC(=O)[C@@H](NC(=O)OC)C(C)(C)C)Cc1ccccc1)C(C)(C)C
subject of test: Protease (Human immunodeficiency virus 1)
label value: 1 (yes)
